- Tested on: GST-tagged Cn
- test: PEPperPRINT peptide microarray binding assay with GST-tagged Cn
- test_conditions: GST-tagged Cn, max over the spots named in Location on chip
Consider the following sequences and their measured Chip Fluorescence (max) readings.

>  <sequence_input>
STSSLPTFSFSSPLST [SeqRBMlowT_892]

>  <Chip Fluorescence (max)>
1.3512

$$$$
>  <sequence_input>
PFLAEQYMVVEEMTVS [Seqshuffled_9732]

>  <Chip Fluorescence (max)>
1.48

$$$$
>  <sequence_input>
KKMAPPAINIDFAPTN [SeqRBMlowT_341]

>  <Chip Fluorescence (max)>
1.339

$$$$
>  <sequence_input>
LNLKIPTIAKADITAT [SeqRBM_4458]

>  <Chip Fluorescence (max)>
1.846

$$$$
>  <sequence_input>
TFWTNPQFTITLEEPD [SeqRBMlowT_1494]

>  <Chip Fluorescence (max)>
1.659

$$$$
>  <sequence_input>
SSKSLPTFSFSSPVSH [SeqRBMlowT_6060]

>  <Chip Fluorescence (max)>
1.331

$$$$

Output reported Chip Fluorescence (max) of the sequence KAYMSPFMQFVDAGRR [SeqSFB3_Nasonia_vitripennis] on GST-tagged Cn.
1.597

---

- Tested on: GST-tagged Cn
- test: PEPperPRINT peptide microarray binding assay with GST-tagged Cn
- test_conditions: GST-tagged Cn, mean over the duplicate spots (Location on chip)
observation_type: Chip Fluorescence (mean)

>  <sequence_input>
KKMSPPCISVHPPDED [SeqRBMlowT_7695]

>  <tested_on>
GST-tagged Cn

>  <experimental_value>
0.511

$$$$

Output reported Chip Fluorescence (mean) of the sequence GGPGTPSRQGQTAAPS [SeqRBM_5534] on GST-tagged Cn.
-0.2851

Output reported Chip Fluorescence (mean) of the sequence TFWTNPQITVTLAEDD [SeqRBMlowT_3250] on GST-tagged Cn.
1.296

Output reported Chip Fluorescence (mean) of the sequence SDVAQQCLPSQHWSCW [Seqrandom_9997] on GST-tagged Cn.
0.2486

Output reported Chip Fluorescence (mean) of the sequence TFWANPQITITLAELD [SeqRBMlowT_7358] on GST-tagged Cn.
0.7622

Output reported Chip Fluorescence (mean) of the sequence TFWTNPQFRVHLEDED [SeqRBMlowT_4265] on GST-tagged Cn.
1.067

Output reported Chip Fluorescence (mean) of the sequence TFWTNPQFKVSLEEPD [SeqRBMlowT_97] on GST-tagged Cn.
0.2931

Output reported Chip Fluorescence (mean) of the sequence KAYMCPYMQFIEGGRR [SeqSFB3_Ictalurus_punctatus] on GST-tagged Cn.
1.763

Output reported Chip Fluorescence (mean) of the sequence KSKRIPKLSVVSPVHH [SeqRBM_6422] on GST-tagged Cn.
0.728

Output reported Chip Fluorescence (mean) of the sequence PSHSIPKHSWESAVEH [SeqRBM_3394] on GST-tagged Cn.
-0.5716

Output reported Chip Fluorescence (mean) of the sequence TFWTNPQYKITLEDPD [SeqRBMlowT_219] on GST-tagged Cn.
1.018

Output reported Chip Fluorescence (mean) of the sequence PSLYINALGIESFTLS [SeqRBMlowT_6967] on GST-tagged Cn.
0.7051

Output reported Chip Fluorescence (mean) of the sequence RTYINPFMQFNRGGRK [SeqRBM_3856] on GST-tagged Cn.
0.8441

Output reported Chip Fluorescence (mean) of the sequence RSKFIPKLSLQSPVHH [SeqRBMlowT_1791] on GST-tagged Cn.
0.1659

Output reported Chip Fluorescence (mean) of the sequence SFWTNPQFIITLQEED [SeqRBMlowT_7307] on GST-tagged Cn.
0.8738

Output reported Chip Fluorescence (mean) of the sequence ESRYRRFRQFQAPKVD [Seqshuffled_9523] on GST-tagged Cn.
1.1019
